# study target: SARS-CoV-1 RBD (SARS-CoV-1, UniProt P59594 306-527)
# condition description: protein: commercial; label: 3'-biotin-TEG (SPR)
property: Kd
Just the number plus its unit, please.

Kd for GGGTGAATCTATGGGGTGGGCAGGGG (XNA) [SPA1-M13] is 8.7 nM
